Data provenance is patent US10253076B2.

- Tested system: HLA-A*02:01 (Homo sapiens, UniProt P04439, D140Y/D185E/D98H/E176V/E277Q/G131W/G231S/I119V/I121R/I166T/I218V/L300P/L318F/N151K/N90K/P208A/P217A/Q86G/Q94H/R138H/R169H/T345S)
- Test summary: MHC binding assay (UV-ligand exchange, beta2m ELISA, peptide exchange yield)
- Condition set: binding of HLA-class I restricted peptides to HLA-A*02:01, ranged by peptide exchange yield (UV-ligand exchange, β2m ELISA)
- Description: Candidate peptides for T cell based therapies according to the present invention were further tested for their MHC binding capacity (affinity). The individual peptide-MHC complexes were produced by UV-ligand exchange, where a UV-sensitive peptide is cleaved upon UV-irradiation, and exchanged with the peptide of interest as analyzed. Only peptide candidates that can effectively bind and stabilize the peptide-receptive MHC molecules prevent dissociation of the MHC complexes. […]
Measured attribute: Peptide exchange

Some entries whose results are on file:
| Substance | Reading |
| --- | --- |
| 211 (LLWPGAALL; listed as Homo sapiens) [compound 211] | ″++″ (≥20% = ++) |
| 106 (LLYDAVHIVSV; listed as Homo sapiens) [compound 106] | ″+++″ (≥50% = +++) |
| 592 (RLLSAAENFL; listed as Homo sapiens) [compound 592] | ″+++″ (≥50% = +++) |
| 561 (YLQLTQSEL; listed as Homo sapiens) [compound 561] | ″+++″ (≥50% = +++) |
| 522 (TLWYRSPEV; listed as Homo sapiens) [compound 522] | ″++″ (≥20% = ++) |

Lookup: Provide Peptide exchange value for the following substance: 608 (SLLSVSHAL; listed as Homo sapiens) [compound 608]
Found: ″+++″ (≥50% = +++)

Lookup: Provide Peptide exchange value for the following substance: 270 (LLLDEEGTFSL; listed as Homo sapiens) [compound 270]
Found: ″++″ (≥20% = ++)

Lookup: Provide Peptide exchange value for the following substance: 313 (VLFDDELLMV; listed as Homo sapiens) [compound 313]
Found: ″+++″ (≥50% = +++)

====

- Tested system: HLA-A*02:01 (Homo sapiens, UniProt P04439, D140Y/D185E/D98H/E176V/E277Q/G131W/G231S/I119V/I121R/I166T/I218V/L300P/L318F/N151K/N90K/P208A/P217A/Q86G/Q94H/R138H/R169H/T345S)
- Test summary: MHC binding assay (UV-ligand exchange, beta2m ELISA, peptide exchange yield)
- Condition set: binding of HLA-class I restricted peptides to HLA-A*02:01, ranged by peptide exchange yield (UV-ligand exchange, β2m ELISA)

| Substance | Peptide exchange |
| --- | --- |
| 251 (ALYTGFSILV; listed as Homo sapiens) [compound 251] | ″++″ (≥20% = ++) |
| 379 (IMEGTLTRV; listed as Homo sapiens) [compound 379] | ″++″ (≥20% = ++) |
| 33 (VLLSLLEKV; listed as Homo sapiens) [compound 33] | ″++″ (≥20% = ++) |

====

- Tested system: HLA-A*02:01 (Homo sapiens, UniProt P04439, D140Y/D185E/D98H/E176V/E277Q/G131W/G231S/I119V/I121R/I166T/I218V/L300P/L318F/N151K/N90K/P208A/P217A/Q86G/Q94H/R138H/R169H/T345S)
- Test summary: MHC binding assay (UV-ligand exchange, beta2m ELISA, peptide exchange yield)
- Condition set: binding of HLA-class I restricted peptides to HLA-A*02:01, ranged by peptide exchange yield (UV-ligand exchange, β2m ELISA)
Measured attribute: Peptide exchange

Some entries whose results are on file:
| Substance | Peptide exchange |
| --- | --- |
| 330 (QLALKVEGV; listed as Homo sapiens) [compound 330] | ″+++″ (≥50% = +++) |
| 308 (SQYSGQLHEV; listed as Homo sapiens) [compound 308] | ″+++″ (≥50% = +++) |
| 199 (ALQDVPLSSV; listed as Homo sapiens) [compound 199] | ″+++″ (≥50% = +++) |
| 192 (KMLDGASFTL; listed as Homo sapiens) [compound 192] | ″+++″ (≥50% = +++) |
| 154 (ALDDGTPAL; listed as Homo sapiens) [compound 154] | ″++″ (≥20% = ++) |
| 217 (ALIHPVSTV; listed as Homo sapiens) [compound 217] | ″++″ (≥20% = ++) |
| 9 (GAAKDLPGV; listed as Homo sapiens) [compound 9] | ″++″ (≥20% = ++) |
| 556 (FLTDLEDLTL; listed as Homo sapiens) [compound 556] | ″+++″ (≥50% = +++) |

Lookup: Provide Peptide exchange value for the following substance: 26 (ALLELAEEL; listed as Homo sapiens) [compound 26]
Found: ″+++″ (≥50% = +++)

Lookup: Provide Peptide exchange value for the following substance: 309 (GLFDGVPTTA; listed as Homo sapiens) [compound 309]
Found: ″+++″ (≥50% = +++)

Lookup: Provide Peptide exchange value for the following substance: 241 (SLVEVNPAYSV; listed as Homo sapiens) [compound 241]
Found: ″+++″ (≥50% = +++)

Lookup: Provide Peptide exchange value for the following substance: 320 (KMFEFVEPLL; listed as Homo sapiens) [compound 320]
Found: ″++++″ (≥75% = ++++)

Lookup: Provide Peptide exchange value for the following substance: 585 (ALWDLAADKQTL; listed as Homo sapiens) [compound 585]
Found: ″++++″ (≥75% = ++++)

====

- Tested system: HLA-A*02:01 (Homo sapiens, UniProt P04439, D140Y/D185E/D98H/E176V/E277Q/G131W/G231S/I119V/I121R/I166T/I218V/L300P/L318F/N151K/N90K/P208A/P217A/Q86G/Q94H/R138H/R169H/T345S)
- Test summary: MHC binding assay (UV-ligand exchange, beta2m ELISA, peptide exchange yield)
- Condition set: binding of HLA-class I restricted peptides to HLA-A*02:01, ranged by peptide exchange yield (UV-ligand exchange, β2m ELISA)
Measured attribute: Peptide exchange

Some entries whose results are on file:
| Substance | Peptide exchange |
| --- | --- |
| 572 (ALADLIEKELSV; listed as Homo sapiens) [compound 572] | ″+++″ (≥50% = +++) |
| 607 (RLYSGISGLEL; listed as Homo sapiens) [compound 607] | ″+++″ (≥50% = +++) |
| 13 (YLMDESLNL; listed as Homo sapiens) [compound 13] | ″+++″ (≥50% = +++) |
| 394 (LLAVIGGLVYL; listed as Homo sapiens) [compound 394] | ″+++″ (≥50% = +++) |

Lookup: Provide Peptide exchange value for the following substance: 551 (KLYESLLPFA; listed as Homo sapiens) [compound 551]
Found: ″+++″ (≥50% = +++)

Lookup: Provide Peptide exchange value for the following substance: 228 (AMQEYIAVV; listed as Homo sapiens) [compound 228]
Found: ″++″ (≥20% = ++)

Lookup: Provide Peptide exchange value for the following substance: 183 (FGLDLVTEL; listed as Homo sapiens) [compound 183]
Found: ″+++″ (≥50% = +++)

Lookup: Provide Peptide exchange value for the following substance: 125 (VQIHQVAQV; listed as Homo sapiens) [compound 125]
Found: ″+++″ (≥50% = +++)

Lookup: Provide Peptide exchange value for the following substance: 281 (ILRESTEEL; listed as Homo sapiens) [compound 281]
Found: ″+++″ (≥50% = +++)

Lookup: Provide Peptide exchange value for the following substance: 254 (TLLAFIMEL; listed as Homo sapiens) [compound 254]
Found: ″+++″ (≥50% = +++)

Lookup: Provide Peptide exchange value for the following substance: 193 (QLLDADGFLNV; listed as Homo sapiens) [compound 193]
Found: ″+++″ (≥50% = +++)

Lookup: Provide Peptide exchange value for the following substance: 107 (FLQPVDDTQHL; listed as Homo sapiens) [compound 107]
Found: ″+++″ (≥50% = +++)

Lookup: Provide Peptide exchange value for the following substance: 64 (YAAPGGLIGV; listed as Homo sapiens) [compound 64]
Found: ″++″ (≥20% = ++)

Lookup: Provide Peptide exchange value for the following substance: 30 (LILDWVPYI; listed as Homo sapiens) [compound 30]
Found: ″+++″ (≥50% = +++)

====

- Tested system: HLA-A*02:01 (Homo sapiens, UniProt P04439, D140Y/D185E/D98H/E176V/E277Q/G131W/G231S/I119V/I121R/I166T/I218V/L300P/L318F/N151K/N90K/P208A/P217A/Q86G/Q94H/R138H/R169H/T345S)
- Test summary: MHC binding assay (UV-ligand exchange, beta2m ELISA, peptide exchange yield)
- Condition set: binding of HLA-class I restricted peptides to HLA-A*02:01, ranged by peptide exchange yield (UV-ligand exchange, β2m ELISA)

| Substance | Peptide exchange |
| --- | --- |
| 492 (SLFDGFADGLGV; listed as Homo sapiens) [compound 492] | ″+++″ (≥50% = +++) |
| 604 (SILDRDDIFV; listed as Homo sapiens) [compound 604] | ″+++″ (≥50% = +++) |
| 541 (SMLEPVPEL; listed as Homo sapiens) [compound 541] | ″+++″ (≥50% = +++) |
